Data credit: PubChem BioAssay

Experiment: serotonin-gated TRPC4 signal block – cell-based, second counter screen, HEK293 TRPC4/5HT1a, Fluo-4, counter-screen for TRPC4 inhibitor project, confirmation (AID 434978)
Conditions: Fluo-4 calcium flux, at 10 µM, serotonin added to trigger calcium flux
The source made the active and inactive calls.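 The calls were made as follows: active = primary screen active whose calcium signal fell more than 3 SD beyond the full-serotonin control mean in both duplicate plates; inactive = the rest.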
Classes used: active, inactive

1) CN(C)CCCN(C(=O)c1ccc(S(=O)(=O)N2CCc3ccccc3C2)cc1)c1nc2ccc(F)cc2s1 :: inactive
2) COc1cccc(N2CC(O)=C(c3nc4ccccc4c(=O)[nH]3)C2=N)c1 :: active
3) C=C(C)COc1ccc(-c2[nH]ncc2Oc2ccc(OC)cc2)c(O)c1 :: inactive
4) CCN(C(=O)c1cc2c(s1)-c1ccccc1OC2)c1cc(OC)ccc1OC :: inactive
5) CN1CCN(c2ccc(NC(=O)c3ccc(-c4cccc([N+](=O)[O-])c4)o3)cc2)CC1 :: inactive
6) CCCCN(C)CCNC(=O)C1CCCN(S(=O)(=O)c2cccc3nsnc23)C1 (stereo not drawn) :: inactive
7) O=c1[nH]ncc(N2CCN(Cc3ccccc3)CC2)c1Cl :: inactive
8) CSCCNC(=O)c1ccc(OC2CCN(CCc3ccccc3)CC2)cc1 :: inactive
9) C=CCNC(=O)C(=O)NCC1CCCN1S(=O)(=O)c1cccs1 (stereo not drawn) :: inactive
10) Cc1oc(-c2ccc(Cl)cc2)nc1CN1CCC(C(=O)NCc2cccs2)CC1 :: active
11) COc1ccc2c(c1)c1ncn(CCN3CCCC3)c(=O)c1n2C :: inactive
12) CC(=O)Cc1nsc(NC(=O)c2csc3c2CCCC3)n1 :: inactive
13) CC(C)Oc1ccccc1C1CC(=O)Nc2cc3c(cc21)OCCO3 (stereo not drawn) :: inactive
14) Cc1cc(OCCN2CCCCC2)nc2ccccc12 :: inactive
15) CCCC1(c2ccccc2)NC(=O)N(CC(=O)c2[nH]c(C)c(C(=O)OCC)c2C)C1=O (stereo not drawn) :: inactive
16) OCC1(Cc2ccc(Cl)cc2)CCN(Cc2ccccc2F)CC1 :: active
17) CN1/C(=C\C=[N+](C)c2ccccc2)C(C)(C)c2ccccc21 :: inactive
18) CCC(C(=O)Nc1ccccc1OC)n1c(C(=O)OC)cc2ccsc21 (stereo not drawn) :: inactive
19) Cc1ccc(NC(=O)CCN2CCC(Cc3ccccc3)CC2)cc1 :: inactive
20) CN(C)c1ccc(NC(=O)C2C3C=CC(C3)C2C(=O)O)cc1 (stereo not drawn) :: inactive
21) Clc1ccc(N=C2SCC3CCCCN23)cc1 (stereo not drawn) :: inactive
22) COCCn1c(SCc2ccccc2F)nc2ccccc2c1=O :: active
23) Cc1ccc(OCC(=O)NNC(=S)NC(=O)c2ccc(Br)o2)c(C)c1 :: active

====

System: TRPC4 (mouse), co-expressed with 5HT1a in HEK293
Assay: enhancement of serotonin-evoked TRPC4 response – cell-based, second counter screen, HEK293 TRPC4/5HT1a, Fluo-4, counter-screen for TRPC4 potentiator project, confirmation (AID 434979)
Conditions: Fluo-4 calcium flux, at 10 µM, serotonin added at its EC20 dose; hits give high values
Active and inactive are the calls of the source.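 How the source made its calls: active means signal rise over 3 SD above mean of control wells given weak agonist, in both repeats and first screen; inactive means the rest.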
Recorded metric: potentiation

1. CC#CC[N+](C)(C)CCCCCCCCCCCC :: inactive
2. COC(=O)c1ccccc1NC(=O)CCC(=O)N1CC(C)Oc2ccc(C)cc21 (stereo unspecified) :: inactive
3. Cc1nc(Cl)nc(N(C)c2ccccc2)c1[N+](=O)[O-] :: inactive
4. COC(=O)[C@@]12CCCCN1[C@H](c1ccc(-c3cccc(Cl)c3)c(OC)c1)[C@H]1C(=O)N(C)C(=O)[C@H]12 :: 52.4% (active)
5. CC(NC(=O)c1ccco1)C(c1cccs1)N1CCN(c2ccccc2)CC1 (stereo unspecified) :: inactive
6. CSc1ccc(CN(C)C(C)C(=O)NCc2ccccc2)cc1 (stereo unspecified) :: inactive
7. CCc1ccc(OCC(=O)NC2CCCCC2)c(Br)c1 :: 135% (active)
8. CC(C)OC(=O)C1CC=CCC1C(=O)Nc1ccc(Cl)cc1 (stereo unspecified) :: inactive
9. NC(N)=NN=C1CCCCCCCCCCC1 :: inactive
10. CC(C)Sc1nc2sc3c(c2c2nnc(SCC(=O)NCc4ccco4)n12)CCCC3 :: inactive
11. CCC(C)NCCOCCOc1ccccc1-c1ccccc1 (stereo unspecified) :: inactive
